Reference for the values: paper PMC13541613

tested_target: ZNF721 full-length (Homo sapiens, UniProt Q8TF20-2 1-923)
Sequence (Q8TF20 other isoform, or with tags, fused parts or gaps): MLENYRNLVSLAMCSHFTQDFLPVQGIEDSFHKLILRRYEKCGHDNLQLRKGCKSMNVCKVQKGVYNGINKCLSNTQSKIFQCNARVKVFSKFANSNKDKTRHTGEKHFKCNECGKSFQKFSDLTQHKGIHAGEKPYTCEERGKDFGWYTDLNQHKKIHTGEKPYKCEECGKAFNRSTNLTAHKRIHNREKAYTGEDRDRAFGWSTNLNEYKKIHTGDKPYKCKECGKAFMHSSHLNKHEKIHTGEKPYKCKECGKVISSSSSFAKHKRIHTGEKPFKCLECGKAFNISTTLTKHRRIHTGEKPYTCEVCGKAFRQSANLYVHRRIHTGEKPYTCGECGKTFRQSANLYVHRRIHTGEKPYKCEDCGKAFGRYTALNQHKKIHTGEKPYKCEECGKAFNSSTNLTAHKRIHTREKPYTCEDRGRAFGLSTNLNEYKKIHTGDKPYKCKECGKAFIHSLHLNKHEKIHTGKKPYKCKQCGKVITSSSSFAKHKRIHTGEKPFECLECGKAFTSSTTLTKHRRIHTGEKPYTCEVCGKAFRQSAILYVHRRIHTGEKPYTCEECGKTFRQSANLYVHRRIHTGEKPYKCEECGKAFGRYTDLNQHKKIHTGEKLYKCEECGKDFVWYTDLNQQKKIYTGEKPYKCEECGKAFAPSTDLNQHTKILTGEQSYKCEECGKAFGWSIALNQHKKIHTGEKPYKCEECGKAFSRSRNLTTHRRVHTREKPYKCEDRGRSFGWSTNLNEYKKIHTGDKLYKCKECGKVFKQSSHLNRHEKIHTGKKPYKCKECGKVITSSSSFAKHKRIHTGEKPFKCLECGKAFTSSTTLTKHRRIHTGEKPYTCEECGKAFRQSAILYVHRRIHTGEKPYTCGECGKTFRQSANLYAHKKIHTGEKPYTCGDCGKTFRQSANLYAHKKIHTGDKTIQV
assay_remarks: HT-SELEX; 20 mM HEPES pH 7, 140 mM KCl, 5 mM NaCl, 1 mM K2HPO4, 2 mM MgSO4, 100 uM EGTA, ZnSO4, 0.1% Tween20; room temperature, 1 h; high values mean tight binding
condition_parameters: protein: ivt; tags: eGFP (N-terminal); dsDNA, one strand shown
Could you please report measured binding signal for the items listed next?
One number for each entry, in relative 10-mer count.

Past entries and their recorded results:
item_sequence=CCCCACACCA measured=0.118
item_sequence=AAAAAAAAGC measured=0.653
item_sequence=CCACCGCCCC measured=0.256
item_sequence=GAAAAAAAAA measured=0.142
item_sequence=CAACCACCCC measured=0.13

Your task in this section: give binding signal for each listed record.
1. ACGAAAACAG
2. CCCGCCCCCA

1: 0.106; 2: 0.153
